tested on: L1210 leukemia (sc); assay: Antileukemic screen, L1210 tumour sc, drug ip qd 1-5; type: in vivo, mice (C3H/DBA2 F1 hybrids); parameters: unit not given here; conditions: Strain F1, Schedule qd 1-5, drug ip, Table II
Consider the following molecules; for each one, report its LD10.
Reply with just the number.

stdin: Item "COc1cc(NS(C)(=O)=O)ccc1Nc1c2ccccc2nc2ccccc12" has what recorded LD10?
stdout: 10

stdin: Next: "CNC(=O)c1cccc2c(Nc3ccc(NS(C)(=O)=O)cc3OC)c3ccc(C)cc3nc12"
stdout: 10

stdin: Moving on to "COc1cc(NS(C)(=O)=O)ccc1Nc1c2ccc(C)cc2nc2c(C(=O)NCC(N)=O)cccc12"
stdout: 120

stdin: What about this molecule? "CNC(=O)c1ccc2c(Nc3ccc(NS(C)(=O)=O)cc3OC)c3cccc(C)c3nc2c1"
stdout: 25

stdin: Now the molecule "COc1cc(NS(C)(=O)=O)ccc1Nc1c2ccc(Cl)cc2nc2c(C(=O)NCC(N)=O)cccc12"
stdout: 330

* * *

system: TA1537 strain of Salmonella typhimurium; assay: Mutagenicity assay in TA1537 strain; settings: Salmonella typhimurium TA1537
For each record, write down the corresponding Mutagenicity D50.
Reply with just the number.

stdin: Field request: Mutagenicity D50 | item: CNC(=O)c1cccc2c(Nc3ccc(NS(C)(=O)=O)cc3OC)c3ccc(C)cc3nc12 [Compound 1]
stdout: 15.3

stdin: Further, for COc1cc(NS(C)(=O)=O)ccc1Nc1c2ccc(Cl)cc2nc2c(C(=O)NCC(N)=O)cccc12 [Compound 3] ?
stdout: 12.4

stdin: What do we get for COc1cc(NS(C)(=O)=O)ccc1Nc1c2ccc(C)cc2nc2c(C(=O)NCC(N)=O)cccc12 [Compound 2] ?
stdout: 27.6

stdin: What about this compound? CNC(=O)c1ccc2c(Nc3ccc(NS(C)(=O)=O)cc3OC)c3cccc(C)c3nc2c1 [Compound 4]
stdout: 43.8

* * *

test: Lipophilic-hydrophilic balance by reversed phase chromatography; assay type: physicochemical; conditions: linearly related to 1-octanol/H2O partition coefficients
For each entry below, report its Rm (reversed-phase chromatographic lipophilicity) value.
Keep it simple and answer with nothing but the number.

stdin: What Rm (reversed-phase chromatographic lipophilicity) value was documented for this compound, "CNC(=O)c1ccc2c(Nc3ccc(NS(C)(=O)=O)cc3OC)c3cccc(C)c3nc2c1" ?
stdout: -0.17

stdin: # iterate: "COc1cc(NS(C)(=O)=O)ccc1Nc1c2ccc(C)cc2nc2c(C(=O)NCC(N)=O)cccc12"
stdout: -0.32

stdin: Can you handle "CNC(=O)c1cccc2c(Nc3ccc(NS(C)(=O)=O)cc3OC)c3ccc(C)cc3nc12" next?
stdout: 0.32

stdin: Try the compound "COc1cc(NS(C)(=O)=O)ccc1Nc1c2ccc(Cl)cc2nc2c(C(=O)NCC(N)=O)cccc12"
stdout: -0.23

Provenance of the data: patent US4472582A
